target: FGFR1 (Homo sapiens); construct: purchased Millipore; test: ELISA kinase assay, FGFR1 enzymatic activity; assay type: biochemical; conditions: 0.01 μM (10 nM); mean of two separate experiments
Quick rule: inhibition at 0.01 µM of at least 10% means t, below that means f.

Query block: Exam item: decide whether the reported inhibition at 0.01 µM for CS(=O)(=O)n1cc(-c2cnc3ccn(S(=O)(=O)c4cn(CCF)cn4)c3n2)cn1 [Compound 23] is at least 10%.
Result block: t

Query block: Exam item: decide whether the reported inhibition at 0.01 µM for O=S(=O)(c1cn(CCF)cn1)n1ccc2ncc(-c3cnn(C4CC4)c3)nc21 [Compound 14] is at least 10%.
Result block: f

Query block: Exam item: decide whether the reported inhibition at 0.01 µM for CN(C)C(=O)Cn1cc(-c2cnc3ccn(S(=O)(=O)c4cn(CCF)cn4)c3n2)cn1 [Compound 22] is at least 10%.
Result block: f

Query block: Exam item: decide whether the reported inhibition at 0.01 µM for CNC(=O)Cn1cc(-c2cnc3ccn(S(=O)(=O)c4cn(CCF)cn4)c3n2)cn1 [Compound 21] is at least 10%.
Result block: t

Query block: Exam item: decide whether the reported inhibition at 0.01 µM for O=S(=O)(c1cn(C2CCCC2)cn1)n1ccc2ncc(-c3cn[nH]c3)nc21 [Compound 32] is at least 10%.
Result block: f

* * *

target: FGFR1 (Homo sapiens, UniProt P11362); construct: purchased Millipore; assay: ELISA kinase assay, FGFR1 enzymatic activity; format: biochemical; settings: 0.1 μM; mean of two separate experiments
Sequence (P11362 22-822): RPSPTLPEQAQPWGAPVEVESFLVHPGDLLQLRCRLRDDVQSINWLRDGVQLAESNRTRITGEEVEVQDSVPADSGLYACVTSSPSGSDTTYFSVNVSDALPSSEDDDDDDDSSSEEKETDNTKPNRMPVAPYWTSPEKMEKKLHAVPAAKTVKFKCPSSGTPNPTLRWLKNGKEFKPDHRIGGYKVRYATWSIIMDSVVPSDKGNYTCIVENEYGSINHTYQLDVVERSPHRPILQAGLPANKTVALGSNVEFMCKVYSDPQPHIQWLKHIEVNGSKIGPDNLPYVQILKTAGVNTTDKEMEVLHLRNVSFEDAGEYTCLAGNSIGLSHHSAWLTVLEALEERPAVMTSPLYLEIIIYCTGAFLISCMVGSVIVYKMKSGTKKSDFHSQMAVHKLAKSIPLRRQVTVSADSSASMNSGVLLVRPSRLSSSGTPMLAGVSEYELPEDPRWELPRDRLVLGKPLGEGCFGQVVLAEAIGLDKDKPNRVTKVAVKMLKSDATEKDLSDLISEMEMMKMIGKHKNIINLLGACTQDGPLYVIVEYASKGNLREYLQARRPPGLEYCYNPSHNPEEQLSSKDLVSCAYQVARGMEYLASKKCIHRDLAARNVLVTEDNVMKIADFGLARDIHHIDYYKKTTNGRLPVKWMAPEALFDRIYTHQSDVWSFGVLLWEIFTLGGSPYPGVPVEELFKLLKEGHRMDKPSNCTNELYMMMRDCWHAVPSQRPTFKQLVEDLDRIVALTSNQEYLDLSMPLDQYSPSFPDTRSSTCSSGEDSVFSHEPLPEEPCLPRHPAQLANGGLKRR
Give inhibition at 0.1 µM for every item shown.
Form entry: value (%) — number only.

Query block: Report measured inhibition at 0.1 µM; entry is CNC(=O)Cn1cnc(S(=O)(=O)n2ccc3ncc(-c4cn[nH]c4)nc32)c1
Result block: 43.8

Query block: Report measured inhibition at 0.1 µM; entry is CCOC(=O)C(C(=O)OCC)n1cc(-c2cnc3ccn(S(=O)(=O)c4cn(CCF)cn4)c3n2)cn1
Result block: 33.6

Query block: Report measured inhibition at 0.1 µM; entry is O=S(=O)(c1cnn2cccnc12)n1ccc2ncc(-c3cn[nH]c3)nc21
Result block: 26.4

* * *

Give inhibition at 1 µM for every item shown.
biological target: FGFR1 (Homo sapiens); construct: purchased Millipore; test: ELISA kinase assay, FGFR1 enzymatic activity; format: biochemical; details: 1 μM; mean of two separate experiments

Query block: Report measured inhibition at 1 µM; entry is CNC(=O)Cn1cc(-c2cnc3ccn(S(=O)(=O)c4cn(CCF)cn4)c3n2)cn1 [Compound 21]
Result block: 65.6%

Query block: Report measured inhibition at 1 µM; entry is CCn1cnc(S(=O)(=O)n2ccc3ncc(-c4cn[nH]c4)nc32)c1 [Compound 29]
Result block: 94.6%

Query block: Report measured inhibition at 1 µM; entry is CC(C)n1cnc(S(=O)(=O)n2ccc3ncc(-c4cn[nH]c4)nc32)c1 [Compound 30]
Result block: 94.5%

Query block: Report measured inhibition at 1 µM; entry is CC(=O)n1cc(-c2cnc3ccn(S(=O)(=O)c4cn(CCF)cn4)c3n2)cn1 [Compound 15]
Result block: 70.9%

Query block: Report measured inhibition at 1 µM; entry is O=S(=O)(c1cn(C2CCCC2)cn1)n1ccc2ncc(-c3cn[nH]c3)nc21 [Compound 32]
Result block: 71.7%

Query block: Report measured inhibition at 1 µM; entry is CNC(=O)Cn1cnc(S(=O)(=O)n2ccc3ncc(-c4cn[nH]c4)nc32)c1 [Compound 33]
Result block: 82.4%

Query block: Report measured inhibition at 1 µM; entry is CS(=O)(=O)n1cc(-c2cnc3ccn(S(=O)(=O)c4cn(CCF)cn4)c3n2)cn1 [Compound 23]
Result block: 82.3%

Query block: Report measured inhibition at 1 µM; entry is O=S(=O)(c1cnn2cccnc12)n1ccc2ncc(-c3cn[nH]c3)nc21 [Compound 34]
Result block: 73.9%

Query block: Report measured inhibition at 1 µM; entry is O=S(=O)(c1c[nH]cn1)n1ccc2ncc(-c3cn[nH]c3)nc21 [Compound 27]
Result block: 90.7%

Query block: Report measured inhibition at 1 µM; entry is COC(=O)C(C(=O)OC)n1cc(-c2cnc3ccn(S(=O)(=O)c4cn(CCF)cn4)c3n2)cn1 [Compound 25]
Result block: 83%

Query block: Report measured inhibition at 1 µM; entry is O=S(=O)(c1cn(CCF)cn1)n1ccc2ncc(-c3cn[nH]c3)nc21 [Compound 13]
Result block: 100%
